The reported measurements were obtained from a melting point compilation (Tetko et al.; mined from patent text by program, amines drawn as free bases though some values may be those of a salt).

Form field: melting point (one value per entry).

// worked examples, melting point included
Nc1c([N+](=O)[O-])sc2ccc(Br)cc12 :: 282 to 284 °C
Clc1cccc2c3c([nH]c12)-c1ccccc1C3 :: 139 °C
COC(=O)c1ccc(N(C)C)cn1 :: 100 to 103 °C
CCCCC[C@H]1CC[C@H](CCc2ccc(CCC)c(C#N)c2C#N)CC1 :: 83.6 °C
CC1(C)OC(CS(=O)(=O)c2ccc(Cl)cc2)=CC1=O :: 112 to 113 °C

Problem: Quick one: melting point for O=C(O)c1[nH]c2cc(Cl)cc(Cl)c2c1C=C1CC(=O)N(c2ccccc2)C1=O ?
Result: > 250 °C

Problem: Also CCc1nccn1-c1ccc(NC(=O)c2ccc(Cl)cc2)cc1 , if possible.
Result: 265 to 267 °C

Problem: Quick one: C=CCn1c(NC=O)nc(N2CCc3ccccc3CC2)c(C#N)c1=O
Result: > 200 °C

Problem: Also, CC(O)CNc1c(Br)cnc2ccccc12 (stereo unspecified) please.
Result: 82 to 83 °C

Problem: What do you get for C=CCOC(=O)c1ccc(S(C)=O)c([N+](=O)[O-])c1 (stereo unspecified) ?
Result: 119 to 121 °C

Problem: COc1ccc(S(=O)(=O)N(CC(=O)O)Cc2ccccc2N)cc1 , same question.
Result: 145 to 147 °C

Problem: Item: CCOC(=O)C12CC1CN(S(=O)(=O)c1ccc(C)cc1)C2c1ccccc1 (stereo unspecified)
Result: 123 to 124 °C
